test system: CaCo2 monolayer; test: CaCo2 Transwell transport (Papp, efflux ratio); format: in vitro ADME, human; conditions: 20 µM, B–A
measure: Papp basolateral to apical (×10⁻⁶ cm/s)
// units = ×10⁻⁶ cm/s; emit number, no label

Look up Papp basolateral to apical for this compound: Cc1nc(Nc2ncc(C(=O)Nc3c(C)cccc3Cl)s2)cc(N2CCN(CCO)CC2)n1 [Dasatinib, dasatinib]
20.4

---

test: CaCo2 Transwell transport (Papp, efflux ratio); type: in vitro ADME, human; conditions: human, Caco-2, with sorafenib (co-incubated, concentration not stated); 10 µM, A–B, with sorafenib; read-out: Papp (Apical Basolateral)
measure: Papp A→B at 180 min, 10 µM (×10⁻⁶ cm/s)
// units = ×10⁻⁶ cm/s; emit number, no label

Look up Papp A→B at 180 min, 10 µM for this compound: "C#Cc1cccc(Nc2ncnc3cc(OCCOC)c(OCCOC)cc23)c1"
0.35
